Origin of values: patent US20210238260A1

- system under test: T1, antithrombin III (plasma purified human AT-III), used as the AT-III/unfractionated heparin complex (human, UniProt P01008 33-464)
- T1 construct: also called AT-III/UFH
- assay procedure: K0.5: AT-III/UFH titrated against FIXa, 10 s, residual cleavage of Mesyl-D-CHG-Gly-Arg-AMC
measure: pIC50
pIC50 is a log-scale quantity: -log10 of the concentration expressed in molar.

What does the record list as pIC50 for FIXa-K228N/R338E/R403E (enzyme, also called K63N/R170E/R233E (chymotrypsin numbering)) chain 1: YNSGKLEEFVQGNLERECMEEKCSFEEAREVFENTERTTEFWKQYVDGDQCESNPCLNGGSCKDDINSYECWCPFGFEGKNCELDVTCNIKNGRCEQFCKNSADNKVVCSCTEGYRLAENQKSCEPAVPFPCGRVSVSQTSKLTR chain 2: VVGGEDAKPGQFPWQVVLNGKVDAFCGGSIVNEKWIVTAAHCVETGVNITVVAGEHNIEETEHTEQKRNVIRIIPHHNYNAAINKYNHDIALLELDEPLVLNSYVTPICIADKEYTNIFLKFGSGYVSGWGRVFHKGRSALVLQYLRVPLVDRATCLESTKFTIYNNMFCAGFHEGGRDSCQGDSGGPHVTEVEGTSFLTGIISWGEECAMKGKYGIYTKVSEYVNWIKEKTKLT ?
5.77

Same thing, different binder: FIXa-R318Y/R403E/E410N (enzyme, also called R150Y/R233E/E240N (chymotrypsin numbering)) chain 1: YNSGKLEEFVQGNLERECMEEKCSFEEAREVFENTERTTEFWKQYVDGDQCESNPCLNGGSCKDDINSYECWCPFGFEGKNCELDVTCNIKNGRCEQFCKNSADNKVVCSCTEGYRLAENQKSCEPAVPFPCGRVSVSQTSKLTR chain 2: VVGGEDAKPGQFPWQVVLNGKVDAFCGGSIVNEKWIVTAAHCVETGVKITVVAGEHNIEETEHTEQKRNVIRIIPHHNYNAAINKYNHDIALLELDEPLVLNSYVTPICIADKEYTNIFLKFGSGYVSGWGRVFHKGYSALVLQYLRVPLVDRATCLRSTKFTIYNNMFCAGFHEGGRDSCQGDSGGPHVTEVEGTSFLTGIISWGEECAMKGKYGIYTKVSEYVNWIKNKTKLT
5.15
